tested on: L1210/0 cells; test: Modified MTT cytotoxicity assay, murine leukemia L1210/0 (Example 2, Table 3); type: cell-based; settings: L1210/0; MTT, continuous exposure 5 days
propertyName: IC50
The reply should consist of the numeric value with the unit placed after it.

NC1CCC(N)CC1.O=C1[O][Pt]([Cl])([Cl])[O]C1=O: 200 nM
NC1CCC(N)CC1.[Cl][Pt]([Cl])([Cl])[Cl] (stereo not drawn): 120 nM

Here's the next entry for you.
Exercise: Provide IC50 value for the following molecule: N[C@H]1CC[C@@H](N)CC1.O=C([O-])CC(=O)[O-].[Pt+2]
Solution: 340 nM

====

Known MTD (Maximum Tolerated Dose) of a selection of molecules
tested on: Murine Leukemia L1210/0; assay: In vivo antitumor activity against murine leukemia L1210/0 (Example 3, Table 5); parameters: species or system BDF1 mice; details: L1210/0 i.p., BDF1 mice; drug i.p. days 1, 5, 9
The reply should be a number in mg/kg/injection, with the unit left off.

Before answering, review these 3 worked examples.
N[C@@H]1CCCC[C@H]1N.[Cl][Pt+2]([Cl])([Cl])[Cl] [Tetraplatin, reference compound]: 3.1
NC1CCC(N)CC1.O.O=S(=O)([O-])[O][Pt+] (stereo not shown): 1.56
N.N.[Cl][Pt][Cl] [Cis-platin, cis-diaminedichloroplatinum(II), reference compound]: 5.0

Exercise: // fetch MTD (Maximum Tolerated Dose); item: NC1CCC(N)CC1.[Cl][Pt]([Cl])([Cl])[Cl] (stereo not shown) ; system: Murine Leukemia L1210/0
Solution: 3.1

Exercise: // fetch MTD (Maximum Tolerated Dose); item: NC1CCC(N)CC1.O=C1[O][Pt][O]C(=O)C1O ; system: Murine Leukemia L1210/0
Solution: 25

Exercise: // fetch MTD (Maximum Tolerated Dose); item: CC(C(=O)[O-])C(=O)[O-].N[C@H]1CC[C@@H](N)CC1.O.[Pt+2] ; system: Murine Leukemia L1210/0
Solution: 200

Exercise: // fetch MTD (Maximum Tolerated Dose); item: NC1CCC(N)CC1.O.O=C([O-])C1(C(=O)[O-])CCC1.[Pt+2] ; system: Murine Leukemia L1210/0
Solution: 200

====

test system: L1210/0 cells; experiment: In vivo antitumor activity, L1210/0 (Example 6, Table 11); parameters: species or system male BDF1 mice; details: L1210/0 i.p.; drug i.p. days 1, 5, 9; median survival; optimal dose (mg/kg/inj): 12, 13, 14: 25; 15: 12.5; Cisplatin: 5
propertyName: % T/C at optimal dose (%)
The reply should be a number in %, with the unit left off.

Before answering, review these 4 worked examples.
N[C@@H]1CCCC[C@H]1N.O=C([O][Pt]([Cl])([Cl])[O]C(=O)C(F)(F)F)C(F)(F)F [Compound 15]: 241
CC(=O)[O][Pt]([Cl])([Cl])[O]C(C)=O.N[C@@H]1CCCC[C@H]1N [Compound 12, (R,R-1,2-DACH)PtCl2 trans(acetate)2]: 276
CC(=O)[O][Pt]([Cl])([Cl])[O]C(C)=O.NC1CCCCC1N [Compound 14, (cis-1,2-DACH)PtCl2 trans(acetate)2]: 171
CC(=O)[O][Pt]([Cl])([Cl])[O]C(C)=O.N[C@H]1CCCC[C@@H]1N [Compound 13, (S,S-1,2-DACH)PtCl2 trans-(acetate)2]: 265

Exercise: Provide % T/C at optimal dose value for the following compound: N.N.[Cl][Pt][Cl] [Cis-platin, cis-diaminedichloroplatinum(II), reference compound]
Solution: 218
